biological target: UniProtKB O95342; assay: Transporter inhibition, vesicle assay; type: in vitro ADME; conditions: read-out: Inhibition characteristics in vitro IC50
Sequence (O95342 whole entry): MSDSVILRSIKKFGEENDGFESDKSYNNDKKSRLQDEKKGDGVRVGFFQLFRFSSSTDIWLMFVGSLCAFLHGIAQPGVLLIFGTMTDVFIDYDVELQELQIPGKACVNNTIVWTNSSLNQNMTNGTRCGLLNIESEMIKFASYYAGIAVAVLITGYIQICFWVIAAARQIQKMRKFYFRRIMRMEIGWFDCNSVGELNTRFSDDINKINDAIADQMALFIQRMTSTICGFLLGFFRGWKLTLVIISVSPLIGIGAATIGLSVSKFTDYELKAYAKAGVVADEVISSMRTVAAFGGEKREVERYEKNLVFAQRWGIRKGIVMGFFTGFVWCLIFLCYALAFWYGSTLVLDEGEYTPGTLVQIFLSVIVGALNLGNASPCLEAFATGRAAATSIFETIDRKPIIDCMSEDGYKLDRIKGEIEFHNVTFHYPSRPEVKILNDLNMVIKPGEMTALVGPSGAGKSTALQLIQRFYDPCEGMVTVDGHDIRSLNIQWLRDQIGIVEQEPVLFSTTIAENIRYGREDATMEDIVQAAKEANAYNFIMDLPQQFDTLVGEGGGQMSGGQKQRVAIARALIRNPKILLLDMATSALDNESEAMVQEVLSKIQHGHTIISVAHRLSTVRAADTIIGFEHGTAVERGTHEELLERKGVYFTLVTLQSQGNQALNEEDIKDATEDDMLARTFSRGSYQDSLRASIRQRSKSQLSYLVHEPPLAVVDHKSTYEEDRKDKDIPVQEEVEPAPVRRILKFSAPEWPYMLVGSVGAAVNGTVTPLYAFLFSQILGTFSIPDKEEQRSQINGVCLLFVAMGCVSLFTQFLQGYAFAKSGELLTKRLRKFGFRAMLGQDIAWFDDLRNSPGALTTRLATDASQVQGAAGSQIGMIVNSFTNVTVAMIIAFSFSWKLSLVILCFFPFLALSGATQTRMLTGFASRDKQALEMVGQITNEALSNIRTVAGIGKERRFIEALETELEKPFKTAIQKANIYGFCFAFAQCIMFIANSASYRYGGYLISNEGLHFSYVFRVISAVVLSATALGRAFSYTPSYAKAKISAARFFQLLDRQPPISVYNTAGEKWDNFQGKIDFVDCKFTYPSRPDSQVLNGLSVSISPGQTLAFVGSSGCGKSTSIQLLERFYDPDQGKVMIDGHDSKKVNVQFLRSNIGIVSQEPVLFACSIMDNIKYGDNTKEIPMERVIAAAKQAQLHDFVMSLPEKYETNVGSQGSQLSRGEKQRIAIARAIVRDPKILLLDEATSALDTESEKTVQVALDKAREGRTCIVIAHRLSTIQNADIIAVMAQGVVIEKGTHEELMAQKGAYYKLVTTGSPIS
assay metric: IC50 (µM)
One number for each entry, in µM.

Task: Given CN(CCC(=O)O)C(=O)c1ccc2c(c1)CC[C@@H]1[C@@H]2CC[C@]2(C)C(c3cncc(F)c3)=CC[C@@H]12 , state its recorded IC50.
Output: 3.6
